- assay_protocol: Mouse liver microsomal stability of compound in microsomal protein, PBS buffer pH 7.4, NADPH, glucose-6-phosphate and glucose-6-phosphate dehydrogenase media. Aliquotes were taken at 5 time points and after stopping the reaction, supernatants were analyzed using HPLC coupled with a tandem mass spectrometer. The elimination constant, half-life, and intrinsic clearance are determined as results using linear regression analysis. The assay has been performed by Enamine biological services, Bienta Ltd.The protocol is publicly available: dx.doi.org/10.17504/protocols.io.5qpvokdb9l4o/v1
- Type: ADME, microsomes, Microsome
- measurement_conditions: liver microsomes
Decision: microsomal CLint beneath 80 µL/min/mg gives Yes; microsomal CLint meeting or exceeding 80 µL/min/mg gives No.

> print(dat)
                                   molecule  assigned.class
1  CNC(=O)c1c[nH]c2ncnc(N[C@@H](c3ccc4c(c3)NC(=O)CO4)C(C)C)c12              No
2  Cn1ncc(-c2cc3c(N[C@@H](c4ccc5c(n4)OCCO5)C(C)(C)C)ncnc3[nH]2)c1C#N              No
3  CC(C)[C@@H](Nc1ncnc2[nH]c(C(=O)N[C@H]3CCN(C)C3)cc12)c1ccc2c(c1)S(=O)(=O)CCC2             Yes

Here's an entry: CC(C)[C@H](Nc1ncnc2[nH]c(-c3cnn(C)c3C#N)cc12)c1ccc2c(n1)NC(=O)CO2 . Is its microsomal CLint below 80 µL/min/mg?
No

Here's an entry: O=C(Nc1ccccc1)Nc1ccc(C(=O)NC2c3cccc(O)c3CC2C(=O)O)cc1 (stereo not drawn) . Is its microsomal CLint below 80 µL/min/mg?
Yes

Here's an entry: CC(C)[C@H](Nc1ncnc2[nH]c(-c3cnn(CC(N)=O)c3)cc12)c1ccc2c(c1)OCCO2 . Is its microsomal CLint below 80 µL/min/mg?
Yes

Here's an entry: CC(C)(C)[C@H](Nc1ncnc2[nH]c(-c3cnn(CC(N)=O)c3)cc12)c1ccc2c(n1)OCCO2 . Is its microsomal CLint below 80 µL/min/mg?
Yes

----------
- assay_protocol: Human liver microsomal stability of compound in microsomal protein, PBS buffer pH 7.4, NADPH, glucose-6-phosphate and glucose-6-phosphate dehydrogenase media. Aliquotes were taken at 5 time points and after stopping the reaction, supernatants were analyzed using HPLC coupled with a tandem mass spectrometer. The elimination constant, half-life, and intrinsic clearance are determined as results using linear regression analysis. The assay has been performed by Enamine biological services, Bienta Ltd.The protocol is publicly available: dx.doi.org/10.17504/protocols.io.5qpvokdb9l4o/v1
- Type: ADME, microsomes, Microsome
- measurement_conditions: liver microsomes
measured_endpoint: half-life

These recorded examples may help you get a feel for the data.
> print(dat)
                                   molecule  measured.endpoint    result
1  CNC(=O)c1c[nH]c2ncnc(N[C@@H](c3ccc4c(c3)S(=O)(=O)CCC4)C(C)C)c12          half-life  12.8 min
2  COc1ccc([C@@H](Cc2nnn[nH]2)NC(=O)c2ncnc3[nH]ccc23)cc1          half-life   314 min
3  CC(C)[C@H](Nc1ncnc2[nH]c(-c3cnn(C)c3C#N)cc12)c1ccc2c(n1)NC(=O)CO2          half-life  12.2 min
4  CNCc1cc(-c2cc3c(N[C@H](c4ccc5c(c4)S(=O)(=O)CCC5)C(C)C)ncnc3[nH]2)co1          half-life  25.1 min
5  Cc1nn(C)cc1-c1cc2c(N[C@@H](c3ccc4c(c3)S(=O)(=O)CCC4)C(C)C)ncnc2[nH]1          half-life   6.6 min
6  CC(C)[C@H](Nc1ncnc2[nH]c(C(=O)N[C@H]3CCN(C)C3)cc12)c1ccc2c(c1)S(=O)(=O)CCC2          half-life   150 min
7  CC(C)[C@H](Nc1ncnc2[nH]cc(C(=O)NC3CC3)c12)c1ccc2c(c1)S(=O)(=O)CCC2          half-life   320 min
8  CC(C)[C@H](Nc1ncnc2[nH]ccc12)c1ccc2c(c1)S(=O)(=O)CCC2          half-life  29.5 min

Form field: reported half-life of CNC(=O)c1c[nH]c2ncnc(N[C@H](c3ccc4c(c3)S(=O)(=O)CCC4)C(C)C)c12
6.5 min

----------
- assay_protocol: Mouse liver microsomal stability of compound in microsomal protein, PBS buffer pH 7.4, NADPH, glucose-6-phosphate and glucose-6-phosphate dehydrogenase media. Aliquotes were taken at 5 time points and after stopping the reaction, supernatants were analyzed using HPLC coupled with a tandem mass spectrometer. The elimination constant, half-life, and intrinsic clearance are determined as results using linear regression analysis. The assay has been performed by Enamine biological services, Bienta Ltd.The protocol is publicly available: dx.doi.org/10.17504/protocols.io.5qpvokdb9l4o/v1
- Type: ADME, microsomes, Microsome
- measurement_conditions: microsomes
Would you mind classing the entries by Remaining? Ranges: bin 0 = under 4%, bin 1 = from 4% up to 90%, bin 2 = 90% and over

Known results for compounds:
> print(dat)
                            compound.string  assigned.class
1  O=C(Nc1cccc2c(C(=O)N[C@@H]3c4ccccc4C[C@@H]3C(=O)O)c[nH]c12)NC1CC1           bin 2
2  CNC(=O)c1cccc(-c2cc3c(N[C@@H](c4ccc5c(c4)S(=O)(=O)CCC5)C(C)C)ncnc3[nH]2)c1           bin 0
3  CC(C)[C@H](Nc1ncnc2[nH]ccc12)c1ccc2c(c1)S(=O)(=O)CCC2           bin 0
4  CC(C)[C@@H](Nc1ncnc2[nH]c(-c3ccc4nnn(C)c4c3)cc12)c1ccc2c(c1)S(=O)(=O)CCC2           bin 0
5  CC(C)[C@H](Nc1ncnc2[nH]c(C(=O)N[C@H]3CCN(C)C3)cc12)c1ccc2c(c1)S(=O)(=O)CCC2           bin 2

Assign a category based on measured Remaining for CC(C)[C@H](Nc1ncnc2[nH]c(-c3cnn(CC(=O)N(C)C)c3)cc12)c1ccc2c(c1)OCCO2 and give only the class name.
bin 1

Assign a category based on measured Remaining for CNC(=O)Cn1cc(-c2cc3c(N[C@H](c4ccc5c(c4)S(=O)(=O)CCC5)C(C)C)ncnc3[nH]2)cn1 and give only the class name.
bin 1

----------
- assay_protocol: Human liver microsomal stability of compound in microsomal protein, PBS buffer pH 7.4, NADPH, glucose-6-phosphate and glucose-6-phosphate dehydrogenase media. Aliquotes were taken at 5 time points and after stopping the reaction, supernatants were analyzed using HPLC coupled with a tandem mass spectrometer. The elimination constant, half-life, and intrinsic clearance are determined as results using linear regression analysis. The assay has been performed by Enamine biological services, Bienta Ltd.The protocol is publicly available: dx.doi.org/10.17504/protocols.io.5qpvokdb9l4o/v1
- Assay type: ADME, microsomes, Microsome
- measurement_conditions: microsomes
measured_endpoint: Remaining (without cofactor)

These recorded examples may help you get a feel for the data.
> print(dat)
                            compound.string  result
1  CNC(=O)Cn1cc(-c2cc3c(N[C@H](c4ccc5c(c4)S(=O)(=O)CCC5)C(C)C)ncnc3[nH]2)cn1    101%
2  CNC(=O)c1cc2c(N[C@H](c3ccc4c(c3)S(=O)(=O)CCC4)C(C)C)ncnc2[nH]1    107%
3  CNC(=O)c1c[nH]c2ncnc(N[C@@H](c3ccc4c(c3)NC(=O)CO4)C(C)C)c12     98%

Alright, here's another molecule for you.
Form field: reported Remaining (without cofactor) of CNC(=O)c1cccc(-c2cc3c(N[C@H](c4ccc5c(c4)S(=O)(=O)CCC5)C(C)C)ncnc3[nH]2)c1
99%

----------
- assay_protocol: Mouse liver microsomal stability of compound in microsomal protein, PBS buffer pH 7.4, NADPH, glucose-6-phosphate and glucose-6-phosphate dehydrogenase media. Aliquotes were taken at 5 time points and after stopping the reaction, supernatants were analyzed using HPLC coupled with a tandem mass spectrometer. The elimination constant, half-life, and intrinsic clearance are determined as results using linear regression analysis. The assay has been performed by Enamine biological services, Bienta Ltd.The protocol is publicly available: dx.doi.org/10.17504/protocols.io.5qpvokdb9l4o/v1
- Type: ADME, microsomes, Microsome
- measurement_conditions: microsomes
measured_endpoint: T1/2 (min)
Express it in min; write the number only.

These recorded examples may help you get a feel for the data.
> print(dat)
                            compound.string  number
1  CNC(=O)Cn1cc(-c2cc3c(N[C@@H](c4ccc5c(c4)S(=O)(=O)CCC5)C(C)C)ncnc3[nH]2)cn1    37.8
2  CC(C)[C@@H](Nc1ncnc2[nH]c(-c3cnn(CC(N)=O)c3)cc12)c1ccc2c(n1)OCCO2   182.3
3  CC(C)[C@@H](Nc1ncnc2[nH]c(-c3cnn(C)c3)cc12)c1ccc2c(c1)S(=O)(=O)CCC2    11.9
4  CNC(=O)c1cc2c(N[C@@H](c3ccc4c(c3)S(=O)(=O)CCC4)C(C)C)ncnc2[nH]1    71.6
5  CC(C)[C@@H](Nc1ncnc2[nH]c(-c3cnn(CC(N)=O)c3)cc12)c1ccc2c(c1)OCCO2      40

Alright, here's another compound for you.
Form field: reported T1/2 of CCNC(=O)c1cc2c(N[C@@H](c3ccc4c(c3)S(=O)(=O)CCC4)C(C)C)ncnc2[nH]1
30.8

These data points were gathered from ChEMBL document CHEMBL5442168.
